Target: T1, human CD20 (human, UniProt P11836 1-297)
T1 sequence: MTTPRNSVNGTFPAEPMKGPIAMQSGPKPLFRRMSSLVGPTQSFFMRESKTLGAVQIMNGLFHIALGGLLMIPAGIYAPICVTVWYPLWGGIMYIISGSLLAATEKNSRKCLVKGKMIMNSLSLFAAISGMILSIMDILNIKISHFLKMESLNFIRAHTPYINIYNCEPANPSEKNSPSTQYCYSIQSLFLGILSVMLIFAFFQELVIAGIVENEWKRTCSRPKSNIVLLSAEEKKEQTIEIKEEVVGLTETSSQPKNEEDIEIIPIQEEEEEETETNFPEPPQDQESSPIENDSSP
Experiment: cell-based or functional assay
measured-quantity: CDC, RL EC50 (nM)
Supply the numeric figure in nM, leaving out any unit text.

q: What value of CDC, RL EC50 has been recorded for this entry: 3H7-6 (antibody, V domains shown, Fully human IgG, constant region not specified; also called 3H7-6N) VH: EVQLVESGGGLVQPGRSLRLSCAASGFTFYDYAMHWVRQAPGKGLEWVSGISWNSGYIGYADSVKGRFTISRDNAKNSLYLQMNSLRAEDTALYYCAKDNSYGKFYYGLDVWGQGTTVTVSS VL: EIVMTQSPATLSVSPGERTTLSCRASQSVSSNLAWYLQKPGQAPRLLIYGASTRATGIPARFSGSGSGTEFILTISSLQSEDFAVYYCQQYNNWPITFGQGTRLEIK
a: 3.66

q: Subsequent entry: 2C11-4 (antibody, V domains shown, Fully human IgG, constant region not specified; also called 2C11-4N) VH: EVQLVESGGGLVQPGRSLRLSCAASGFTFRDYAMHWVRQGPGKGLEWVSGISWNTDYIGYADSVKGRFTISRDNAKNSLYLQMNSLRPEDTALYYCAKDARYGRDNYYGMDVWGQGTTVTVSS VL: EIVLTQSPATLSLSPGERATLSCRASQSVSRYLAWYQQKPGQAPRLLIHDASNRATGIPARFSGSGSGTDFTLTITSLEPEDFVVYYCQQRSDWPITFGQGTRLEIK
a: 5.19

q: Subsequent entry: 9D4-7 (antibody, V domains shown, Fully human IgG, constant region not specified; also called 9D4-7N) VH: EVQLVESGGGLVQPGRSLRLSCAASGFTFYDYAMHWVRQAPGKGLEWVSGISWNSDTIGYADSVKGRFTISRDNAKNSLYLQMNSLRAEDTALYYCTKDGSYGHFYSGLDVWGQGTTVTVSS VL: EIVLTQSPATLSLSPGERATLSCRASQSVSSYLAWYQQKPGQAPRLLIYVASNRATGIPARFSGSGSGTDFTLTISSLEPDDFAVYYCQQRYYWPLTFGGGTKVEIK
a: 0.83

q: Subsequent entry: 3B9-10 (antibody, V domains shown, Fully human IgG, constant region not specified; also called 3B9-10N) VH: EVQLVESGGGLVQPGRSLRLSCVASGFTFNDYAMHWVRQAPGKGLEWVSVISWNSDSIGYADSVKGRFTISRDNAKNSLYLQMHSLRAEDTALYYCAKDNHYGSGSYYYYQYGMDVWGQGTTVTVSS VL: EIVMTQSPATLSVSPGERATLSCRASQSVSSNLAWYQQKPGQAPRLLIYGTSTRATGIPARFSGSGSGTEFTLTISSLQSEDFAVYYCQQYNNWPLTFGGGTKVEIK
a: 8.84

q: Subsequent entry: 6B9-4 (antibody, V domains shown, Fully human IgG, constant region not specified; also called 6B9-4N) VH: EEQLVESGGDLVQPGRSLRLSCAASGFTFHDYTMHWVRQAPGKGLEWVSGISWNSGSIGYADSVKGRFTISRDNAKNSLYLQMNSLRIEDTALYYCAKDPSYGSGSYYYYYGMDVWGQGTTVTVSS VL: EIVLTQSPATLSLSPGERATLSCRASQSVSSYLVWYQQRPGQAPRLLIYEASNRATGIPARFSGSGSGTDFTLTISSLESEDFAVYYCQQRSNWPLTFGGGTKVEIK
a: 0.97
